compounds and their reported % FITCT4 bound to TTR
test system: human transthyretin (TTR) (Homo sapiens, UniProt P02766)
experiment: FITC-T4 TTR-binding assay, initial (original) method
setup conditions: 0.1 uM
// units = %; emit number, no label

Below, each entry is followed by its recorded % FITCT4 bound to TTR result.
{"compound": "CC(C)(C)C(O)C(Oc1ccc(-c2ccccc2)cc1)n1cncn1 (stereo not drawn)", "% FITCT4 bound to TTR (%)": 93.4196}
{"compound": "O=C(O)C(F)(F)C(F)(F)C(F)(F)C(F)(F)C(F)(F)C(F)(F)C(F)(F)F", "% FITCT4 bound to TTR (%)": 82.1607}
{"compound": "O=C(O)C(F)(OC(F)(F)C(F)(F)C(F)(F)F)C(F)(F)F (stereo not drawn) [GenX, Hexafluoropropylene oxide dimer acid]", "% FITCT4 bound to TTR (%)": 92.2482}
{"compound": "Cc1cccc2[nH]nnc12", "% FITCT4 bound to TTR (%)": 96.4305}
{"compound": "CC1COC(Cn2cncn2)(c2ccc(Oc3ccc(Cl)cc3)cc2Cl)O1 (stereo not drawn)", "% FITCT4 bound to TTR (%)": 94.3698}
{"compound": "O=S(=O)(O)C(F)(F)C(F)(F)C(F)(F)C(F)(F)C(F)(F)C(F)(F)F", "% FITCT4 bound to TTR (%)": 74.2951}

*Q* Recall and state the measured % FITCT4 bound to TTR for "O=S(=O)(O)C(F)(F)C(F)(F)C(F)(F)C(F)(F)C(F)(F)C(F)(F)C(F)(F)C(F)(F)F" .
*A* 75.2122

*Q* Recall and state the measured % FITCT4 bound to TTR for "O=S(=O)(O)C(F)(F)C(F)(F)C(F)(F)C(F)(F)F" .
*A* 97.3072

*Q* Recall and state the measured % FITCT4 bound to TTR for "O=C(O)C(F)(F)C(F)(F)C(F)(F)C(F)(F)C(F)(F)F" .
*A* 90.7115

====

System: thyroid hormone receptor (TR)
experiment: TR-Luc reporter gene assay, antagonism (coexposure with 110 pM T3)
Type: cell-based
setup conditions: GH3.TRE cells, coexposed with 110 pM T3, 24 h
result type: TR antagonism IC10 (µM)
// units = µM; emit number, no label

Below, each entry is followed by its recorded TR antagonism IC10 result.
{"molecule": "CCNc1nc(NC(C)C)nc(SC)n1", "result type": "TR antagonism IC10", "assay value": 1.9}
{"molecule": "CCCC1COC(Cn2cncn2)(c2ccc(Cl)cc2Cl)O1 (stereo not shown)", "result type": "TR antagonism IC10", "assay value": 6.1}
{"molecule": "CC1COC(Cn2cncn2)(c2ccc(Oc3ccc(Cl)cc3)cc2Cl)O1 (stereo not shown)", "result type": "TR antagonism IC10", "assay value": 0.64}

// below: TR antagonism IC10 requested for another molecule
*Q* Recall and state the measured TR antagonism IC10 for CC(C)(C)C(O)C(Oc1ccc(Cl)cc1)n1cncn1 (stereo not shown) .
*A* 6.3

====

molecules and their reported IC50
Test system: thyroid hormone receptor (TR)
experiment: TR-Luc reporter gene assay, antagonism (coexposure with 110 pM T3)
Type: cell-based
setup conditions: GH3.TRE cells, coexposed with 110 pM T3, 24 h
// units = µM; emit number, no label

Below, each entry is followed by its recorded IC50 result.
{"molecule": "CC(C)(C)C(O)C(Oc1ccc(Cl)cc1)n1cncn1 (stereo not shown)", "IC50 / µM": 21.3}
{"molecule": "CCCC1COC(Cn2cncn2)(c2ccc(Cl)cc2Cl)O1 (stereo not shown)", "IC50 / µM": 20.1}
{"molecule": "CC1COC(Cn2cncn2)(c2ccc(Oc3ccc(Cl)cc3)cc2Cl)O1 (stereo not shown)", "IC50 / µM": 4.1}

// below: IC50 requested for another molecule
*Q* Recall and state the measured IC50 for "CCNc1nc(NC(C)C)nc(SC)n1" .
*A* 28.9

====

test system: human transthyretin (TTR) (Homo sapiens)
experiment: FITC-T4 TTR-binding assay, initial (original) method
setup conditions: 30 uM
Procedure: All incubations were performed at room temperature. Fluorescence enhancement was determined for each well by subtracting its relative fluorescence units (RFU) before TTR addition from its RFUs after TTR addition. The resulting values were normalized to percentages of the vehicle control. […] After 15 min of incubation, fluorescence was measured and fluorescence enhancement was calculated by subtracting RFU without TTR from RFU with TTR. […]
result type: % FITCT4 bound to TTR (%)
// units = %; emit number, no label

Below, each entry is followed by its recorded % FITCT4 bound to TTR result.
{"compound": "CC1COC(Cn2cncn2)(c2ccc(Oc3ccc(Cl)cc3)cc2Cl)O1 (stereo not drawn) [Difenoconazole]", "result type": "% FITCT4 bound to TTR", "unit abbreviation": "%", "assay value": 47.2598}
{"compound": "O=S(=O)(O)C(F)(F)C(F)(F)C(F)(F)C(F)(F)F [PFBS, Perfluorobutane sulfonic acid]", "result type": "% FITCT4 bound to TTR", "unit abbreviation": "%", "assay value": 21.5802}
{"compound": "O=S(=O)(O)C(F)(F)C(F)(F)C(F)(F)C(F)(F)C(F)(F)C(F)(F)C(F)(F)C(F)(F)F [PFOS, Perfluorooctane sulfonic acid]", "result type": "% FITCT4 bound to TTR", "unit abbreviation": "%", "assay value": 1.548}
{"compound": "CC(C)(C)C(O)C(Oc1ccc(-c2ccccc2)cc1)n1cncn1 (stereo not drawn) [Bitertanol]", "result type": "% FITCT4 bound to TTR", "unit abbreviation": "%", "assay value": 52.4704}
{"compound": "O=C(O)C(F)(F)C(F)(F)C(F)(F)C(F)(F)C(F)(F)F [PFHxA, Perfluorohexanoic acid]", "result type": "% FITCT4 bound to TTR", "unit abbreviation": "%", "assay value": 12.6684}
{"compound": "O=C(O)C(F)(OC(F)(F)C(F)(F)C(F)(F)F)C(F)(F)F (stereo not drawn) [GenX, Hexafluoropropylene oxide dimer acid]", "result type": "% FITCT4 bound to TTR", "unit abbreviation": "%", "assay value": 53.6966}
{"compound": "O=S(=O)(O)C(F)(F)C(F)(F)C(F)(F)C(F)(F)C(F)(F)C(F)(F)F [PFHxS, Perfluorohexane sulfonic acid]", "result type": "% FITCT4 bound to TTR", "unit abbreviation": "%", "assay value": 2.41}
{"compound": "Cc1cccc2[nH]nnc12 [4-methylbenzotriazole, 4-Methylbenzotriazole]", "result type": "% FITCT4 bound to TTR", "unit abbreviation": "%", "assay value": 47.648}

// below: % FITCT4 bound to TTR requested for another compound
*Q* Jot down % FITCT4 bound to TTR (human transthyretin (TTR) (Homo sapiens)) of O=C(O)C(F)(F)C(F)(F)C(F)(F)C(F)(F)C(F)(F)C(F)(F)C(F)(F)F [PFOA, Perfluorooactanoic acid] .
*A* 0.3274

====

test system: human transthyretin (TTR) (Homo sapiens, UniProt P02766)
experiment: FITC-T4 TTR-binding assay, initial (original) method
setup conditions: 10 uM
compounds and their reported % FITCT4 bound to TTR
// units = %; emit number, no label

{"compound": "CC(C)(C)C(O)C(Oc1ccc(-c2ccccc2)cc1)n1cncn1 (stereo not drawn) [Bitertanol]", "unit abbreviation": "%", "assay value": 64.391}
{"compound": "O=C(O)C(F)(OC(F)(F)C(F)(F)C(F)(F)F)C(F)(F)F (stereo not drawn) [GenX, Hexafluoropropylene oxide dimer acid]", "unit abbreviation": "%", "assay value": 74.6529}
{"compound": "O=S(=O)(O)C(F)(F)C(F)(F)C(F)(F)C(F)(F)F [PFBS, Perfluorobutane sulfonic acid]", "unit abbreviation": "%", "assay value": 44.4619}
{"compound": "CC1COC(Cn2cncn2)(c2ccc(Oc3ccc(Cl)cc3)cc2Cl)O1 (stereo not drawn) [Difenoconazole]", "unit abbreviation": "%", "assay value": 60.3391}
{"compound": "O=S(=O)(O)C(F)(F)C(F)(F)C(F)(F)C(F)(F)C(F)(F)C(F)(F)C(F)(F)C(F)(F)F [PFOS, Perfluorooctane sulfonic acid]", "unit abbreviation": "%", "assay value": 0.8236}

*Q* Recall and state the measured % FITCT4 bound to TTR for O=S(=O)(O)C(F)(F)C(F)(F)C(F)(F)C(F)(F)C(F)(F)C(F)(F)F [PFHxS, Perfluorohexane sulfonic acid] .
*A* 4.647

*Q* Recall and state the measured % FITCT4 bound to TTR for O=C(O)C(F)(F)C(F)(F)C(F)(F)C(F)(F)C(F)(F)F [PFHxA, Perfluorohexanoic acid] .
*A* 21.8899

*Q* Recall and state the measured % FITCT4 bound to TTR for O=C(O)C(F)(F)C(F)(F)C(F)(F)C(F)(F)C(F)(F)C(F)(F)C(F)(F)F [PFOA, Perfluorooactanoic acid] .
*A* 2.364

*Q* Recall and state the measured % FITCT4 bound to TTR for Cc1cccc2[nH]nnc12 [4-methylbenzotriazole, 4-Methylbenzotriazole] .
*A* 67.1205
